- System: ACHN renal
- procedure.summary: NCI-60 one-dose screen, 48 h
- condition.details: 10 µM unless noted
This is part of a sample that, as a whole, favours compounds with a hit. Of some 83,000 tested, about 20% had one in any assay. Calls of active or inactive are those of the source. The calls were made as follows: active = growth percent below 10; inactive = the rest.
Outcomes: Y for active, N for inactive

compound=CCOC(=O)c1cnc2c(-c3ccc(Cl)c(Cl)c3)cnn2c1 target_under_test="ACHN renal" qualitative_label=N
compound=CC(=C(c1ccc(OCCN(C)C)cc1)c1ccc(OCCN(C)C)cc1)c1ccc(Cl)cc1 target_under_test="ACHN renal" qualitative_label=Y
compound=CC(C)(C)c1cc(NC(=O)Nc2ccc(-c3cn4c5c(sc4n3)CCc3cn(CCCN4CCCCC4)cc3-5)cc2)no1 target_under_test="ACHN renal" qualitative_label=Y
compound=C#C[C@]1(O)CC[C@H]2[C@@H]3CC=C4c5sc(Nc6cc(Cl)ccc6OC)nc5CC[C@]4(C)[C@H]3CC[C@@]21C target_under_test="ACHN renal" qualitative_label=N
compound=CNC(=O)c1cc(-n2ccc3cc(NC(=O)Nc4ccc(N5CCN(C)CC5)c(C(F)(F)F)c4)ccc32)ccn1 target_under_test="ACHN renal" qualitative_label=N
compound="CCC1=Cc2c(OC)cccc2OC12C=Cc1c(OC)cccc1O2 (stereo unspecified)" target_under_test="ACHN renal" qualitative_label=N
compound=CC(C)NC(=O)c1cc(-c2ccc(NC(=O)Nc3ccc(F)cc3)cc2)nc2cccnc12 target_under_test="ACHN renal" qualitative_label=N
compound=O=C1[C@H]2Cc3c([nH]c4ccccc34)[C@H](c3ccc(Cl)cc3)N2C(=O)CN1C1CCN(CC2CCCCC2)CC1 target_under_test="ACHN renal" qualitative_label=N
compound=CCNC(=O)Oc1ccc(/C(=C(/C)c2ccc(OC)cc2)c2ccc(OCCN3CCCCCC3)cc2)cc1 target_under_test="ACHN renal" qualitative_label=N
compound=COc1ccc(/C=N/N=C(/c2ccccc2)c2ccc3nc(-c4ccc(Cl)cc4)[nH]c3c2)cc1 target_under_test="ACHN renal" qualitative_label=N
compound=Cc1[nH]c(C(=O)Nc2ccccc2OCc2cccc(C(=O)NCCN)c2)cc1Cl target_under_test="ACHN renal" qualitative_label=N
compound=COc1ccc([C@H]2C(=O)N(c3cc(OC)c(OC)c(OC)c3)[C@@H]2c2ccc(OC)c(O)c2)cc1 target_under_test="ACHN renal" qualitative_label=N
compound=COc1ccc(C(C)=C(c2ccc(OCCN(C)C)cc2)c2ccc(OCCN(C)C)cc2)cc1 target_under_test="ACHN renal" qualitative_label=Y
compound=CC1(C)CC[C@]23CC[C@]4(C)[C@H](CC[C@@H]5[C@@]6(C)CC[C@H](N)C(C)(C)[C@@H]6CC[C@]54C)[C@H]2[C@H]1OC3 target_under_test="ACHN renal" qualitative_label=N
compound=C#Cc1nc(/C=C\CCCCCCC(=O)NO)cs1 target_under_test="ACHN renal" qualitative_label=N
compound=CC1=C(C)C(=O)C(Nc2cccc(C(=O)OC(C)(C)C)c2)=CC1=O target_under_test="ACHN renal" qualitative_label=N

###

- Tested on: SK-MEL-2 melanoma
- procedure.summary: NCI-60 one-dose screen, 48 h
- condition.details: 10 µM unless noted
The panel holds about 83,000 compounds, 20% with a hit somewhere; the sample as a whole holds those more often. Calls of active or inactive are those of the source. Rule for the calls: active = growth percent below 10; inactive = the rest.
Outcomes: YES for active, NO for inactive

given_smiles=CN(C)c1ccc(/C=N/Nc2nc(N/N=C/c3ccc(N(C)C)cc3)nc(N3CCCCC3)n2)cc1 target_under_test="SK-MEL-2 melanoma" qualitative_label=NO
given_smiles=Cc1ccc2c(n1)C(=O)C(Cl)=C(Nc1ccc(C(=O)OC(C)(C)C)cc1)C2=O target_under_test="SK-MEL-2 melanoma" qualitative_label=NO
given_smiles=Brc1ccc2[nH]cc(-c3nn4cc(-c5nccs5)nc4s3)c2c1 target_under_test="SK-MEL-2 melanoma" qualitative_label=NO
given_smiles=Cc1c(C(=O)/C=C/c2ccc(Cl)cc2)nnn1-c1ccc2oc(=O)ccc2c1 target_under_test="SK-MEL-2 melanoma" qualitative_label=NO
given_smiles=Oc1ccc(-c2nc3ccc(/C(=N\N=C\c4ccc(Cl)cc4)c4ccccc4)cc3[nH]2)cc1 target_under_test="SK-MEL-2 melanoma" qualitative_label=NO
given_smiles=O=C(NCCNc1cc(-c2cn(-c3ccccc3)nc2-c2cccc(O)c2)ccn1)Nc1cc(C(F)(F)F)cc(C(F)(F)F)c1 target_under_test="SK-MEL-2 melanoma" qualitative_label=NO
given_smiles=COc1ccc2[nH]cc(-c3nc(N)nnc3-c3cn(C)c4ccc(Br)cc34)c2c1 target_under_test="SK-MEL-2 melanoma" qualitative_label=YES
given_smiles=Cc1ccc2c(n1)C(=O)C(Cl)=C(Nc1cccc(C(F)(F)F)c1)C2=O target_under_test="SK-MEL-2 melanoma" qualitative_label=NO
